Conditions: in ethyl acetate, 318.15 K
experimental endpoint: solubility (mole fraction)
# output: bare number, no unit

Qu. Please report the recorded solubility (mole fraction) for O=[N+]([O-])c1ccc(Oc2ccc([N+](=O)[O-])cc2)cc1 .
Ans. 0.036

* * *

Conditions: in isopropanol, 303.15 K
experimental endpoint: solubility (mole fraction)
Could you respond with only the numeric value?

Qu. Would you kindly share the measured solubility (mole fraction) for O=[N+]([O-])c1ccc(Oc2ccc([N+](=O)[O-])cc2)cc1 ?
Ans. 0.000394

* * *

Conditions: in ethanol, 303.15 K
experimental endpoint: solubility (mole fraction)
Please give only the number in your answer, with no unit.

Qu. Form field: reported solubility (mole fraction) of O=[N+]([O-])c1ccc(Oc2ccc([N+](=O)[O-])cc2)cc1
Ans. 0.000631
